Hello, the source for this data is patent US20150086555A1, in case you need it.

target_system: recombinant homotrimeric HA A/northern shoveler/California/HKWF115/07 H6N4 (Influenza A virus A/northern shoveler/California/HKWF115/2007(H6N1))
assay_method_text: protein microarray, purified IgG, trimeric HA
measurement_context: remark: other sources report otherwise
parameter_measured: Trimeric HA Binding: RLU

- binder: "TCN-531 (5091_H13) (antibody, V domains shown) VH: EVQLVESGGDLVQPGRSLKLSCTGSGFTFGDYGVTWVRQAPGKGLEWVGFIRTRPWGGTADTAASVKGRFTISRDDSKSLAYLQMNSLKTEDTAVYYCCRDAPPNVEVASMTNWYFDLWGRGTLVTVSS VL: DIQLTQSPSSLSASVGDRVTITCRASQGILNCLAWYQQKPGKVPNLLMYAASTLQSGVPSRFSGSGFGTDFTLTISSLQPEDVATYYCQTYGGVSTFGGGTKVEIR"
  parameter_measured: "Trimeric HA Binding: RLU"
  result: "45 RLU"
- binder: "TCN-540 (5060_F05) (antibody, V domains shown) VH: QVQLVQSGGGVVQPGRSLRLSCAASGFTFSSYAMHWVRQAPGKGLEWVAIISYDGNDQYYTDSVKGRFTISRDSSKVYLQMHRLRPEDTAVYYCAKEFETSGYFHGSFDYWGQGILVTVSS VL: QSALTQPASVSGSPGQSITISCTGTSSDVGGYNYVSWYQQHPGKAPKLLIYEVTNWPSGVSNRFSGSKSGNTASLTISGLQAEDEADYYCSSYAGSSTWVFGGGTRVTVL"
  parameter_measured: "Trimeric HA Binding: RLU"
  result: "76 RLU"
- binder: "TCN-536 (5095_N01) (antibody, V domains shown) VH: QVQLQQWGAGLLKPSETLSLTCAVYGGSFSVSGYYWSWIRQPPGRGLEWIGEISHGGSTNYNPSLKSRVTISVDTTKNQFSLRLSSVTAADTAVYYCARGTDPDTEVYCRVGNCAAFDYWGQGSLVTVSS VL: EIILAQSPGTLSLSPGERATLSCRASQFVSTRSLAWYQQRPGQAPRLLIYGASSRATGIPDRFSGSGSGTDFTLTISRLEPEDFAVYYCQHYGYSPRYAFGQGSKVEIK"
  parameter_measured: "Trimeric HA Binding: RLU"
  result: "114 RLU"
- binder: "TCN-523 (5248_A17) (antibody, V domains shown) VH: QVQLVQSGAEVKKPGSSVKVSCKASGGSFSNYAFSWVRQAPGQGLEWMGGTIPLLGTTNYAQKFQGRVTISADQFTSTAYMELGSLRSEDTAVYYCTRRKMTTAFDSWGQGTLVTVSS VL: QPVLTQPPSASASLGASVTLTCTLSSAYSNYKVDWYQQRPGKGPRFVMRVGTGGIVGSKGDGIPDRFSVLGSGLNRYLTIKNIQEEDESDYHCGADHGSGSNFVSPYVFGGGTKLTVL"
  parameter_measured: "Trimeric HA Binding: RLU"
  result: "3370 RLU"
- binder: "TCN-550 (5096_F06) (antibody, V domains shown) VH: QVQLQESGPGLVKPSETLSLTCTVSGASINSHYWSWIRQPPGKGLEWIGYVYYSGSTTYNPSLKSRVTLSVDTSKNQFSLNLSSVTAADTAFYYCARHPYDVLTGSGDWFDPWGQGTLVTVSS VL: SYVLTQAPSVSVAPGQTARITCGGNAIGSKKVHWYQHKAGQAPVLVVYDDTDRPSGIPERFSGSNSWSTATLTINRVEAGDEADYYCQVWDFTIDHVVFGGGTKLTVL"
  parameter_measured: "Trimeric HA Binding: RLU"
  result: "106 RLU"
